Target Or System: PCBP1 KH3 domain (WT) (Homo sapiens, UniProt Q15365)
Method Notes: Fe
Format: binding
Assay Context: read-out: KD of Fe(II) for wild-type KH3; 5 mM GSH
Experimental Readout: Kd

> print(dat)
              smiles.record                          target.or.system  data.value
1  O=S(=O)([O-])[O-].[Fe+2]  PCBP1 KH3 domain (WT) (Homo sapiens, UniProt Q15365)      800 nM

----------
Target Or System: BolA2–KH3 complex (Homo sapiens)
Sequence (Q15365 279-356): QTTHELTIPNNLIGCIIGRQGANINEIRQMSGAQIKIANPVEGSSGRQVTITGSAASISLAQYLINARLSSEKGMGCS
Sequence (Q9H3K6 whole entry partner): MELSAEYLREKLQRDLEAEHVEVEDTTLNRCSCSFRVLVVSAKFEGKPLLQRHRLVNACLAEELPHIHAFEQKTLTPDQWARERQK
Method Notes: biochemical
Experimental Readout: Kd (µM)

> print(dat)
                                   compound  data.value
1  N[C@@H](CCC(=O)N[C@@H](CS)C(=O)NCC(=O)O)C(=O)O [GSH, glutathione]          86

----------
Target Or System: PCBP1 KH3 domain (Homo sapiens, UniProt Q15365)
Sequence (Q15365 279-356 limits assumed): as the sequence (Q15365 279-356) above
Method Notes: biochemical
Assay Context: KD of GSH for KH3, buffer containing 10 μM Fe(II) (FeSO4); 200 nM labeled KH3
pKd: −log10 of the molar value.
Experimental Readout: pKd

> print(dat)
                                   molecule  data.value
1  N[C@@H](CCC(=O)N[C@@H](CS)C(=O)NCC(=O)O)C(=O)O [GSH, glutathione]        4.10

----------
Target Or System: PCBP1 KH3 domain C293S variant
Method Notes: Fe
Type: binding, human
Assay Context: read-out: KD of Fe(II) for C293S KH3; 0 mM GSH
Experimental Readout: Kd (µM)

> print(dat)
              smiles.record                target.or.system  experimental.readout  data.value
1  O=S(=O)([O-])[O-].[Fe+2]  PCBP1 KH3 domain C293S variant                    Kd        16.4

----------
Target Or System: PCBP1 KH3 domain (Homo sapiens, UniProt Q15365)
Method Notes: biochemical
Assay Context: apparent KD of GSH for KH3, buffers without iron; 200 nM labeled KH3
Experimental Readout: Kd

> print(dat)
                              smiles.record  experimental.readout  data.value
1  N[C@@H](CCC(=O)N[C@@H](CS)C(=O)NCC(=O)O)C(=O)O                    Kd      390 µM

----------
Target Or System: PCBP1 KH3 domain (WT) (Homo sapiens)
Method Notes: Fe
Format: binding
Assay Context: read-out: KD of Fe(II) for wild-type KH3; 0 mM GSH (absence of glutathione)
Experimental Readout: Kd (µM)

> print(dat)
              smiles.record  unit.name  data.value
1  O=S(=O)([O-])[O-].[Fe+2]         µM         4.2

----------
Target Or System: PCBP1 KH3 domain C293S variant
Method Notes: Fe
Type: binding, human
Assay Context: read-out: KD of Fe(II) for C293S KH3; 5 mM GSH
Experimental Readout: Kd (µM)

> print(dat)
                                   molecule  experimental.readout  unit.name  data.value
1  O=S(=O)([O-])[O-].[Fe+2] [Fe(II), FeSO4]                    Kd         µM         9.4
